target: Alpha-1D adrenergic receptor (Homo sapiens, UniProt P25100)
Sequence (P25100 whole entry): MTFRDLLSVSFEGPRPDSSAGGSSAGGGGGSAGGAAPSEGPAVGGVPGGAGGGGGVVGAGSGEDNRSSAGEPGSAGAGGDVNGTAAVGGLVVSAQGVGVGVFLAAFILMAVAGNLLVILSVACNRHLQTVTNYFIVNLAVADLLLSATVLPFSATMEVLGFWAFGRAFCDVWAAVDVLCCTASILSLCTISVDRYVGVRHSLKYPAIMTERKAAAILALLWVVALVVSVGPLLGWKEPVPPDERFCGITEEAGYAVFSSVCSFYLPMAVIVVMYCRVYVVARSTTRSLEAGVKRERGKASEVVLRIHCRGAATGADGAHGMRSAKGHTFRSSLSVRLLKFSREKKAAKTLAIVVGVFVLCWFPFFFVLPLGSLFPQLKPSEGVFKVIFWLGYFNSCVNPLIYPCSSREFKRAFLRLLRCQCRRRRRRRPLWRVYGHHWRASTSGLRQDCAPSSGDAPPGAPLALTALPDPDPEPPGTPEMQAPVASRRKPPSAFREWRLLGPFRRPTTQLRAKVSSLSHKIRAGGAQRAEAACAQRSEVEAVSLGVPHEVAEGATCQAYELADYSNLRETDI
measurement.name: pKi
Note: pKi values are expressed as the negative base-10 logarithm of concentration in M.

>>> result_value("CC(=O)N1CCC(c2ccc(C(=O)NC(=N)N)cc2C(F)(F)F)CC1 [BI 9627]")
5.00

Given CC(=O)N1CCC(c2ccc(C(=O)NC3=NCCN3)cc2C(F)(F)F)CC1 [BI 0054] , report its pKi on Alpha-1D adrenergic receptor (Homo sapiens, UniProt P25100). 5.00

###

target: Sodium channel alpha subunit (site 2) (Homo sapiens, UniProt P35498+P35499+Q01118+Q14524+Q15858+Q99250+Q9NY46+Q9UI33+Q9UQD0+Q9Y5Y9); experiment: NA+/SITE2AG Eurofins-Panlabs selectivity data (BI); assay type: protein assay, Cavia porcellus; design: mode of action antagonist; settings: guinea pig; compound concentration 30 uM; read-out: % Ctrl
measurement.name: activity at 30 µM

Consider the molecule CC(=O)N1CCC(c2ccc(C(=O)NC(=N)N)cc2C(F)(F)F)CC1 [BI 9627] and give its recorded activity at 30 µM. 100% (not active)

###

target: Sodium channel alpha subunit (site 2) (Homo sapiens, UniProt P35498+P35499+Q01118+Q14524+Q15858+Q99250+Q9NY46+Q9UI33+Q9UQD0+Q9Y5Y9); assay: NA+/SITE2ATG Eurofins-Panlabs selectivity data (BI); format: protein assay, Cavia porcellus; parameters: mode of action antagonist; settings: guinea pig; compound concentration 30 uM; read-out: % Ctrl
measurement.name: activity at 30 µM

Consider the compound CC(=O)N1CCC(c2ccc(C(=O)NC(=N)N)cc2C(F)(F)F)CC1 [BI 9627] and give its recorded activity at 30 µM. 100% (not active)

###

target: Voltage-dependent L-type calcium channel subunit alpha-1C (DHP site) (Rattus norvegicus); assay: CA+/DHPSI/RA Eurofins-Panlabs selectivity data (BI); conditions: compound concentration 10 uM, read-out: % Ctrl
Sequence (P22002 whole entry): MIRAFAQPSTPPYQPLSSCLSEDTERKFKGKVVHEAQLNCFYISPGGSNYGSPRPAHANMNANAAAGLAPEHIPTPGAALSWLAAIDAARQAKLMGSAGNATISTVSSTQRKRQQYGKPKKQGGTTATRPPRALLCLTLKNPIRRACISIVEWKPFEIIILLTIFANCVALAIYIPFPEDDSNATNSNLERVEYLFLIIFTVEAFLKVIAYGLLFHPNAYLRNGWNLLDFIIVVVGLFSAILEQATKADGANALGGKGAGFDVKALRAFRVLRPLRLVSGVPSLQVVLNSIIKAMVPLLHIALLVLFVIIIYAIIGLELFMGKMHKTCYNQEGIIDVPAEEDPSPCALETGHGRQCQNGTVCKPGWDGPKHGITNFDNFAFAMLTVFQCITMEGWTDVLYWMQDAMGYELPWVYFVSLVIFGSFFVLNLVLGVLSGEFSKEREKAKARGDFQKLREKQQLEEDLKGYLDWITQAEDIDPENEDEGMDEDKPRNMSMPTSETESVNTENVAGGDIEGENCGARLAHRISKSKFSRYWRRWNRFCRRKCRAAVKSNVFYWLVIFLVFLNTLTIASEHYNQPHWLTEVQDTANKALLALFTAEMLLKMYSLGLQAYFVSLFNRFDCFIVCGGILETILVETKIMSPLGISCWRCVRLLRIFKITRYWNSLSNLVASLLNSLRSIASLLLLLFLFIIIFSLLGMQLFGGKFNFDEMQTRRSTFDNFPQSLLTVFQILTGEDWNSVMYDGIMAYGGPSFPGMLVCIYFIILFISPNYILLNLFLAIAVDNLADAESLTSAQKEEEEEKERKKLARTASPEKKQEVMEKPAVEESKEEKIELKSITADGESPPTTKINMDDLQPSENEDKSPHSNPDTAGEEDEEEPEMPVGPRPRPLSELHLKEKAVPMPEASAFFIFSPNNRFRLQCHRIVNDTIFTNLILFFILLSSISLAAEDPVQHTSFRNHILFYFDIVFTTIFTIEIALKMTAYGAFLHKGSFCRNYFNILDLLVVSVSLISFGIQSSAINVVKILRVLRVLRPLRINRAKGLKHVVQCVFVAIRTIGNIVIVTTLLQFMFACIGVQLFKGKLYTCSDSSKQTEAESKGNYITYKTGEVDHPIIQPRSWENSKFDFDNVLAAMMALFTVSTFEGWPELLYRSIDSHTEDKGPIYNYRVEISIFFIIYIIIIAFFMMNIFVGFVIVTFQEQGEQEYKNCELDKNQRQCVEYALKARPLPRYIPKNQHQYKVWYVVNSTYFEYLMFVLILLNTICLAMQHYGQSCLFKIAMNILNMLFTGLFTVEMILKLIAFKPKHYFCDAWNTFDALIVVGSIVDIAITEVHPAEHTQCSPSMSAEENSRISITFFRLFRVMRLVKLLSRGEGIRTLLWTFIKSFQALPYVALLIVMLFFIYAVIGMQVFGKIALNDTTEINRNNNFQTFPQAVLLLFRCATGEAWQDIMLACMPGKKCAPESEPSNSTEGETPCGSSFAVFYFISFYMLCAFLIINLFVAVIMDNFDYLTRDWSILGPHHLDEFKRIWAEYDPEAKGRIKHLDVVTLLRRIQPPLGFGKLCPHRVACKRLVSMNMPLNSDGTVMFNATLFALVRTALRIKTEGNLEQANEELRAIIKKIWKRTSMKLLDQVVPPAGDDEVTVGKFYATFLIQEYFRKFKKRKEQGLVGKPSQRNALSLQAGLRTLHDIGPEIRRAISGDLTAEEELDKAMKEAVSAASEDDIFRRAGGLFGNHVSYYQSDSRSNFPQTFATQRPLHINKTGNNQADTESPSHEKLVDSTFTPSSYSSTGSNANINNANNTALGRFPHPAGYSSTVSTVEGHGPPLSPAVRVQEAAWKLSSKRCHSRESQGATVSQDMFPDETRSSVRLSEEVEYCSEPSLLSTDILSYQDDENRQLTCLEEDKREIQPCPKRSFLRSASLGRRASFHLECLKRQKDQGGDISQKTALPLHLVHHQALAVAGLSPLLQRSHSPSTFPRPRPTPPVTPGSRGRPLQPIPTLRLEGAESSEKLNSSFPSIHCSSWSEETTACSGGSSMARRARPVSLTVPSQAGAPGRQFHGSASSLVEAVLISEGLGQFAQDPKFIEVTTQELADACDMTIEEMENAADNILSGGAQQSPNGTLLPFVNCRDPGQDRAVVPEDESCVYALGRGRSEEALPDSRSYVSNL
measurement.name: activity at 10 µM

Consider the compound CC(=O)N1CCC(c2ccc(C(=O)NC(=N)N)cc2C(F)(F)F)CC1 [BI 9627] and give its recorded activity at 10 µM. 77% (not active)

###

molecular target: hERG (voltage-gated inwardly rectifying potassium channel KCNH2) (Homo sapiens); assay: K+/HERG Eurofins-Panlabs selectivity data (BI); details: compound concentration 10 uM, read-out: % Ctrl
Sequence (Q12809 whole entry): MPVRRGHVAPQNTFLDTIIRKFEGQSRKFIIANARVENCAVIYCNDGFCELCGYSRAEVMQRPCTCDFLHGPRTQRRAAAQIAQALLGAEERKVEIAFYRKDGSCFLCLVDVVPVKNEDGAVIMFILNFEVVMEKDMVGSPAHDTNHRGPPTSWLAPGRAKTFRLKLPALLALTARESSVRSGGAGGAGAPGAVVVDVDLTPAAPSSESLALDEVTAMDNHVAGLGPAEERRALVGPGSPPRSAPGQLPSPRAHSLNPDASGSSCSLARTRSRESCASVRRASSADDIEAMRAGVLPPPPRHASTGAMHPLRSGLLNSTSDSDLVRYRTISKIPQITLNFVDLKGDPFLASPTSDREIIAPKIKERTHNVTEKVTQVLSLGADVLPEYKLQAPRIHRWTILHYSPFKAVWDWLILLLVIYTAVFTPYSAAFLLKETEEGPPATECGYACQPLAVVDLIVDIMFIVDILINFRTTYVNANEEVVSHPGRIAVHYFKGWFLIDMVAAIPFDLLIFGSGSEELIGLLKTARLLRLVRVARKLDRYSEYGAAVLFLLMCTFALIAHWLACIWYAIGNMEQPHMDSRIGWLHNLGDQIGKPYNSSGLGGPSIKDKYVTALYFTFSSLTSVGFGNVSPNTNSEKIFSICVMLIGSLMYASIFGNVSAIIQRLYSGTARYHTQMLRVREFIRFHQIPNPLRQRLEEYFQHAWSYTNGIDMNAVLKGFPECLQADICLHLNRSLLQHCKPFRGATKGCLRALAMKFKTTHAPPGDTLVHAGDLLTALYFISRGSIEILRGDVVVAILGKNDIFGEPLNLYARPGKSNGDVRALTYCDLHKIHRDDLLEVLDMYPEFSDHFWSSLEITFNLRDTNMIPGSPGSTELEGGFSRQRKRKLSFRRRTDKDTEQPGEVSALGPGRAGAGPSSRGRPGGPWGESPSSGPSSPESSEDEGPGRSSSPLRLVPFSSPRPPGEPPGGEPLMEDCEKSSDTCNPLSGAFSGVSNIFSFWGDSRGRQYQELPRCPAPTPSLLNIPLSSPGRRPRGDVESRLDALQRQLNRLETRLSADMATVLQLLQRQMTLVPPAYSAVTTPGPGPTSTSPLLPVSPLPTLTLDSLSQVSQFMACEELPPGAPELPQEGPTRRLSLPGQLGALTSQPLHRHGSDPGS
measurement.name: activity at 10 µM

Consider the compound `CC(=O)N1CCC(c2ccc(C(=O)NC(=N)N)cc2C(F)(F)F)CC1` and give its recorded activity at 10 µM. 105% (not active)
